Origin of measurements: patent US5410018A

- subject.of.test: NMB receptor (Rattus norvegicus)
- Sequence (P24053 whole entry): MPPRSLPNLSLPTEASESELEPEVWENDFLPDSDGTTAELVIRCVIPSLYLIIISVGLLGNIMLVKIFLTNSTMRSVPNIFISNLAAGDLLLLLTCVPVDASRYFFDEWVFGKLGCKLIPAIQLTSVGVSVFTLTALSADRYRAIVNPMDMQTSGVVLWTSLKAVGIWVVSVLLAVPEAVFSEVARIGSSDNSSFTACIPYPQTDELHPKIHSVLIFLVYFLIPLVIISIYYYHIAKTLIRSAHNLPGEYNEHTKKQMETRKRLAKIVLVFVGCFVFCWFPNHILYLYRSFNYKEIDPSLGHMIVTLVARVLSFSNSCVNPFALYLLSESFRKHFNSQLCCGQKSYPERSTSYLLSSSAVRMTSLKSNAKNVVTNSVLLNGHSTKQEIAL
- experiment.notes: biochemical
No end group written: not given here.

>  <substance>
GNQWARGHFM-NH2 [BIM-26336]

>  <Ki (nM)>
15.1

$$$$

---

- subject.of.test: GRP receptor (Rattus norvegicus, UniProt P52500)
- Sequence (P52500 whole entry): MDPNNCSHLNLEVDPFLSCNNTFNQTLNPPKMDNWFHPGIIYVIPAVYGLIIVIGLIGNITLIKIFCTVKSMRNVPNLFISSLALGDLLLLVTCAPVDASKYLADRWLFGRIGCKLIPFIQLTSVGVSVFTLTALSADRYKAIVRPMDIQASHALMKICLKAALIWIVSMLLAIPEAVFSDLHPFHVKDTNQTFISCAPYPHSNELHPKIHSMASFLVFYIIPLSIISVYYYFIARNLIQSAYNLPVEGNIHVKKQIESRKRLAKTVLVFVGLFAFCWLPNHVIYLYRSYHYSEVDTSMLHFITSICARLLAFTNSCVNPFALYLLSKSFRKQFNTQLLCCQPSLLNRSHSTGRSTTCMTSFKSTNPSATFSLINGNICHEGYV
- experiment.notes: biochemical
No end group written: not given here.

>  <substance>
GNQWARGHFM-NH2 [BIM-26336]

>  <Ki / nM>
6.6

$$$$
